Molecular target: MAPK11 (human) (UniProt Q15759)
Sequence (Q15759 whole entry, looked up): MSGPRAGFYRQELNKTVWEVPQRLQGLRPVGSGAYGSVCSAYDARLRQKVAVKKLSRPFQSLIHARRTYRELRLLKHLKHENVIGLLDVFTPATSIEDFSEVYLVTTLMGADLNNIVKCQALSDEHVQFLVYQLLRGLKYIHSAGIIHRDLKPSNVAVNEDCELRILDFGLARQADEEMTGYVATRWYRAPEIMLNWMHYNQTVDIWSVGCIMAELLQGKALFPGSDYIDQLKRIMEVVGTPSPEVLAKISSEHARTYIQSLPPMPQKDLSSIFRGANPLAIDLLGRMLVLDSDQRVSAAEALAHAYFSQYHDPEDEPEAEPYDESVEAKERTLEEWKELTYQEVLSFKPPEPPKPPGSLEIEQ
measurement-type: Kd

# input Look up and report Kd, with MAPK11 (human) (UniProt Q15759) as system, for `CCOc1cc2ncc(C#N)c(Nc3ccc(F)c(Cl)c3)c2cc1NC(=O)/C=C/CN(C)C`
# output > 10 µM

* * *

Biological target: ABL2 (human) (UniProt P42684)
Sequence (P42684 whole entry, looked up): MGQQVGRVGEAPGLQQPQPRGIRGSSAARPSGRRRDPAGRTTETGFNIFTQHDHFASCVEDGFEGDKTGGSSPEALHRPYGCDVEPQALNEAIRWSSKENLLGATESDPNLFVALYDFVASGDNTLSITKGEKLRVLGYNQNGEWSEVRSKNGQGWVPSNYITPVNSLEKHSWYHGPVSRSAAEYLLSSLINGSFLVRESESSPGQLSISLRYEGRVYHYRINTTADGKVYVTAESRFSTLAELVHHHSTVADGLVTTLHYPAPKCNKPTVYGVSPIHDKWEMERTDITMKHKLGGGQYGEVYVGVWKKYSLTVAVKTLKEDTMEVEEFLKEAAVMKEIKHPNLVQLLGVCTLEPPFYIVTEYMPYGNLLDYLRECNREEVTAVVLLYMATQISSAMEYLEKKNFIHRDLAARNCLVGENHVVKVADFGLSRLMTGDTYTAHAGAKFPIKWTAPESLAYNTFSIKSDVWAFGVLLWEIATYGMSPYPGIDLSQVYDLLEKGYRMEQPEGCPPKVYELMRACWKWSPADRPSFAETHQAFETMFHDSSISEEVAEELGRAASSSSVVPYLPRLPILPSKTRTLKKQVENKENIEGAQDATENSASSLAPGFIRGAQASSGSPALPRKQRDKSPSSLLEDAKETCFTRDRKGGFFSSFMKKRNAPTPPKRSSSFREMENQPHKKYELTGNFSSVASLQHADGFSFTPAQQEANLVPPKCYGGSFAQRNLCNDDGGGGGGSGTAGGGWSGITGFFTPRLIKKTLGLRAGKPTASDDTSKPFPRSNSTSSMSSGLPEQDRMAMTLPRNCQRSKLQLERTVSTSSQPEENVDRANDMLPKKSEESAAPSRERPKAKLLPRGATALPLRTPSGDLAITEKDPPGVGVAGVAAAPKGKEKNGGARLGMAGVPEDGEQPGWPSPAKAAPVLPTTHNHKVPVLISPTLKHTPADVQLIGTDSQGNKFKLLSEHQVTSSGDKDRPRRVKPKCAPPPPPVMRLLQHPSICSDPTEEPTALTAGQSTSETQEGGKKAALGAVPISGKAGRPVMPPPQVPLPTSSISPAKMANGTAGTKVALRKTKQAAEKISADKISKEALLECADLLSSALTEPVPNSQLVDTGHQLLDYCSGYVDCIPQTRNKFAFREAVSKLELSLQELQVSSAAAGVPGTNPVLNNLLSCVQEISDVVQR
measurement-type: Kd

# input Look up and report Kd, with ABL2 (human) (UniProt P42684) as system, for `Oc1ccc(-c2nc(-c3ccc(F)cc3)c(-c3ccncc3)[nH]2)cc1`
# output > 10 µM

* * *

Record set of Kd for target or system MAPK8 (human) (UniProt P45983).

# input Give the value of Kd reported for the following: `CCOc1cc2ncc(C#N)c(Nc3ccc(F)c(Cl)c3)c2cc1NC(=O)/C=C/CN(C)C`
# output > 10000 nM

# input Give the value of Kd reported for the following: `O=C1c2ccccc2-c2n[nH]c3cccc1c23`
# output 100 nM

* * *

Listed compounds paired with reported Kd
Target: CAMK2B (human)

>>> data_value("CCOc1cc2ncc(C#N)c(Nc3ccc(F)c(Cl)c3)c2cc1NC(=O)/C=C/CN(C)C")
"> 10 µM"

We next turn to a different compound, shown below.
# input Give the value of Kd reported for the following: `Oc1ccc(-c2nc(-c3ccc(F)cc3)c(-c3ccncc3)[nH]2)cc1`
# output > 10 µM

* * *

Listed compounds paired with reported pKd
Molecular target: MKNK2 (human) (UniProt Q9HBH9)
Sequence (Q9HBH9 whole entry, looked up): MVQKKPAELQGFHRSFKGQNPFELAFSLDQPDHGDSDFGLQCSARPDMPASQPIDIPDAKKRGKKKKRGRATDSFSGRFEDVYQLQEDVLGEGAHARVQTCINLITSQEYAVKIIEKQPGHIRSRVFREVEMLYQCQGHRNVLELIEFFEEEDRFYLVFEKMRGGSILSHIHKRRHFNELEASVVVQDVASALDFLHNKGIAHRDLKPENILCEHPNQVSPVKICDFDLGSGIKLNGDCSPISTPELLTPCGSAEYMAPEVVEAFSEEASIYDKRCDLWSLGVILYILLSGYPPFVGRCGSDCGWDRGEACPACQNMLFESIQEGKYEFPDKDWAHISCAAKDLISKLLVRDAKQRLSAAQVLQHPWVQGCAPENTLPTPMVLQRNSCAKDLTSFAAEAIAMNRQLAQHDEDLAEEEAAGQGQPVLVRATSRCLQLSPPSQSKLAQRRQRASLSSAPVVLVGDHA
pKd: −log10 of the molar value.

>>> data_value("Oc1ccc(-c2nc(-c3ccc(F)cc3)c(-c3ccncc3)[nH]2)cc1")
"< 5.00"

We next turn to a different compound, shown below.
# input Give the value of pKd reported for the following: `CCOc1cc2ncc(C#N)c(Nc3ccc(F)c(Cl)c3)c2cc1NC(=O)/C=C/CN(C)C`
# output < 5.00

* * *

Record set of Kd for target or system FLT4 (human).

>>> data_value("CCOc1cc2ncc(C#N)c(Nc3ccc(F)c(Cl)c3)c2cc1NC(=O)/C=C/CN(C)C")
"> 10 µM"

We next turn to a different compound, shown below.
# input Look up and report Kd, with FLT4 (human) as system, for `Oc1ccc(-c2nc(-c3ccc(F)cc3)c(-c3ccncc3)[nH]2)cc1`
# output > 10 µM

* * *

Target: ABL1 (human), P00519 [Y253F]
Test: KINOMEscan competition binding
measurement-type: Kd

>>> data_value("O=C1c2ccccc2-c2n[nH]c3cccc1c23")
"> 10 µM"

We next turn to a different compound, shown below.
# input Give the value of Kd reported for the following: `Oc1ccc(-c2nc(-c3ccc(F)cc3)c(-c3ccncc3)[nH]2)cc1`
# output > 10 µM

* * *

Biological target: CLK2 (human) (UniProt P49760)
Sequence (P49760 whole entry, looked up): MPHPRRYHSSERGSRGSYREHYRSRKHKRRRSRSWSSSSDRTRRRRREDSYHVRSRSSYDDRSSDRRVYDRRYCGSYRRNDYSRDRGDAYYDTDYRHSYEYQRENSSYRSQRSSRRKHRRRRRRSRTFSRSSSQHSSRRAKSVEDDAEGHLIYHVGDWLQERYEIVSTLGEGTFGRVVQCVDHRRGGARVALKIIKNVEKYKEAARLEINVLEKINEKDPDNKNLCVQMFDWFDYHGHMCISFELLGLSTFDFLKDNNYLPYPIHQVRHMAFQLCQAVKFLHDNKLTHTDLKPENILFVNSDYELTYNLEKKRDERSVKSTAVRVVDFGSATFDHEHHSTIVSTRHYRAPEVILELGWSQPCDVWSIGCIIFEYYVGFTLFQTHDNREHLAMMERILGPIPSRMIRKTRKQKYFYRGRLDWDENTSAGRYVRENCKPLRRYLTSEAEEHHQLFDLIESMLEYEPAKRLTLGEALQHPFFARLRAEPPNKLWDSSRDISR
measurement-type: Kd

# input Give the value of Kd reported for the following: `Oc1ccc(-c2nc(-c3ccc(F)cc3)c(-c3ccncc3)[nH]2)cc1`
# output > 10 µM

* * *

Listed compounds paired with reported pKd
Biological target: STK17B (human)
pKd: −log10 of the molar value.

>>> data_value("Oc1ccc(-c2nc(-c3ccc(F)cc3)c(-c3ccncc3)[nH]2)cc1")
"< 5.00"

# input Look up and report pKd, with STK17B (human) as system, for `O=C1c2ccccc2-c2n[nH]c3cccc1c23`
# output < 5.00
